Test Method Notes: protein stability index of a GFP-peptide fusion (yeast GPS) (PSI 1-4); higher = more stable; sorted into four equal gates, so the index is relative within each strain
Test Settings: pdr5∆
Categories are assigned from the measured protein stability index using these intervals: range A: < 2; range B: ≥ 2 and < 3; range C: ≥ 3

[[record]]
sequence = "IYKPLLFEIVSNADTNQ [SRB8]"
class_assignment = "range B"

[[record]]
sequence = "KLASTLEKISSSNKDLE [SMC4]"
class_assignment = "range B"

[[record]]
sequence = "KKRKNKSSGSSMATPTH [ROX3]"
class_assignment = "range C"

[[record]]
sequence = "KNLVKVLESRVNARDIP [CSN12]"
class_assignment = "range A"

[[record]]
sequence = "VLKTLIEKFEQVPDSLD [RPN6]"
class_assignment = "range C"

[[record]]
sequence = "YDGVERVSLQDIKDFAD [QCR2]"
class_assignment = "range B"

[[record]]
sequence = "QLDGFSSDDRVKVLAAT [RPT5]"
class_assignment = "range B"

[[record]]
sequence = "KFSERRKALPKEPKKLL [DSN1]"
class_assignment = "range B"

[[record]]
sequence = "LHYTPIEDLWQFLYEKH [RPC82]"
class_assignment = "range B"

[[record]]
sequence = "QGKHTKFENDELAESTT [LRP1]"
class_assignment = "range B"

[[record]]
sequence = "VSKKVDVRRLKKNVWRS [BRN1]"
class_assignment = "range A"

[[record]]
sequence = "RVAASFSQEALQYVVER [FAS1]"
class_assignment = "range A"

[[record]]
sequence = "YRLMIKRLNFSFVGDYM [GRR1]"
class_assignment = "range A"


###

Test Method Notes: protein stability index of a GFP-peptide fusion (yeast GPS) (PSI 1-4); higher = more stable; sorted into four equal gates, so the index is relative within each strain
Test Settings: ubr1∆
Values of protein stability index greater than or equal to 3 map to T; values below map to F.

[[record]]
sequence = "PNCPRPNMSICIFGDAF [RPL1A]"
class_assignment = "F"

[[record]]
sequence = "CAMSGLTADARSMIEHA [PUP2]"
class_assignment = "F"

[[record]]
sequence = "NLNRAFNGDQVIVELLP [DIS3]"
class_assignment = "T"

[[record]]
sequence = "PTLFDLAFNYITYDKQE [SRP68]"
class_assignment = "F"

[[record]]
sequence = "LEQLAQHTTESDNISRK [RPB2]"
class_assignment = "T"

[[record]]
sequence = "IKKYASVVRVLVHTQIR [RPL3]"
class_assignment = "F"


###

Test Method Notes: protein stability index of a GFP-peptide fusion (yeast GPS) (PSI 1-4); higher = more stable; sorted into four equal gates, so the index is relative within each strain
Test Settings: doa10∆
Entries and their measured protein stability index follow.
Readout Kind: protein stability index

[[record]]
sequence = "ERLMTWKFKSLIEILRL [RRI2]"
readout_kind = "protein stability index"
observed_measurement = 2.11

[[record]]
sequence = "EPYHFISNYNTKYTDDM [SRB8]"
readout_kind = "protein stability index"
observed_measurement = 2.96

[[record]]
sequence = "VSSKPSKPESSVLQLIV [MED1]"
readout_kind = "protein stability index"
observed_measurement = 2.73

[[record]]
sequence = "PTKAAQRARDQDSIDIS [GAL11]"
readout_kind = "protein stability index"
observed_measurement = 3.21

[[record]]
sequence = "DIYSHEYKVITSLQGTY [YMR129W/POM152]"
readout_kind = "protein stability index"
observed_measurement = 1.89

[[record]]
sequence = "INYQVDSKLLPKNIEPP [SWI3]"
readout_kind = "protein stability index"
observed_measurement = 2.92

[[record]]
sequence = "GSDKQMFTQIYLERIEL [YML103C/NUP188]"
readout_kind = "protein stability index"
observed_measurement = 2.5

[[record]]
sequence = "VGLRSNTHAVLVALKRN [PRE5]"
readout_kind = "protein stability index"
observed_measurement = 1.2

[[record]]
sequence = "ALFQPPNFDWDLCSSVL [ROX3]"
readout_kind = "protein stability index"
observed_measurement = 3.08

[[record]]
sequence = "CTKLAVYYSKRGFKVGL [SRP54]"
readout_kind = "protein stability index"
observed_measurement = 2.57

[[record]]
sequence = "AHELQSEDVSRDHEKDT [YIL149C/MLP2]"
readout_kind = "protein stability index"
observed_measurement = 2.38

[[record]]
sequence = "AGANDTSNNETNNGNDD [GRR1]"
readout_kind = "protein stability index"
observed_measurement = 2.8

[[record]]
sequence = "MQTALRRLPEDESYARA [QCR7]"
readout_kind = "protein stability index"
observed_measurement = 2.78

[[record]]
sequence = "SKRWAQRTLSKSFYSTA [CYT1]"
readout_kind = "protein stability index"
observed_measurement = 1.69

[[record]]
sequence = "VKEESQPDENTKEMDEV [SWI3]"
readout_kind = "protein stability index"
observed_measurement = 3.3

[[record]]
sequence = "FMRQNLEWNMANLLFKK [RPC82]"
readout_kind = "protein stability index"
observed_measurement = 2.82

[[record]]
sequence = "IALLTLKESVEGEFNGD [PRE8]"
readout_kind = "protein stability index"
observed_measurement = 2.77

[[record]]
sequence = "GIDPQDLKKLNLNVYIQ [CDC53]"
readout_kind = "protein stability index"
observed_measurement = 1.68

[[record]]
sequence = "NHDRINISNNLQKALTV [RPN8]"
readout_kind = "protein stability index"
observed_measurement = 3.17

[[record]]
sequence = "LEQLAQHTTESDNISRK [RPB2]"
readout_kind = "protein stability index"
observed_measurement = 3.33

[[record]]
sequence = "GLLSQAIGCIERSDLLP [YJR042W/NUP85]"
readout_kind = "protein stability index"
observed_measurement = 2.37

[[record]]
sequence = "GIRIKGKIVGFDEFMNV [SME1]"
readout_kind = "protein stability index"
observed_measurement = 3.15

[[record]]
sequence = "DNVSSQQMHEVRKELRG [RPP0]"
readout_kind = "protein stability index"
observed_measurement = 2.4

[[record]]
sequence = "LNVYHYFGENSSISWKN [YJL039C/NUP192]"
readout_kind = "protein stability index"
observed_measurement = 1.79

[[record]]
sequence = "LKGLLQELKADSPFSLI [SRP72]"
readout_kind = "protein stability index"
observed_measurement = 1.43

[[record]]
sequence = "YMDSMNEKVAVMRNTYN [GAL11]"
readout_kind = "protein stability index"
observed_measurement = 2.72

[[record]]
sequence = "RRLHDENLMVQRTCLMT [YCS4]"
readout_kind = "protein stability index"
observed_measurement = 2.43

[[record]]
sequence = "KKKDPVNQDKANNASQI [SNF12]"
readout_kind = "protein stability index"
observed_measurement = 3.02

[[record]]
sequence = "LMTFNAETKSYDSRGVG [YLR335W/NUP2]"
readout_kind = "protein stability index"
observed_measurement = 2.19

[[record]]
sequence = "EVYNVIASDGSYVNYRH [RPO21]"
readout_kind = "protein stability index"
observed_measurement = 3.41

[[record]]
sequence = "FGPKKENRKKDESDSEN [YLR335W/NUP2]"
readout_kind = "protein stability index"
observed_measurement = 3.04

[[record]]
sequence = "NLLLRELNVEKLNTFNL [SRP72]"
readout_kind = "protein stability index"
observed_measurement = 2.71

[[record]]
sequence = "MKLVNFLKKLRNEQVTI [SMD1]"
readout_kind = "protein stability index"
observed_measurement = 1.87

[[record]]
sequence = "DFELAVGKVMNKNQETA [RPT6]"
readout_kind = "protein stability index"
observed_measurement = 2.37

